B1: PBXIP1 (parent)
chain: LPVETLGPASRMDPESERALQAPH

variants of: B1; experiment: protein stability index of a GFP-peptide fusion (GPS, HEK-293T) (PSI 1-6); higher = more stable; conditions: c terminus: a fixed tail appended;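 note: lentivirally expressed fusions sorted by FACS into six bins by GFP to DsRed ratio, PSI derived from sequencing read proportions per bin multiplied by bin number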
Entries and their measured protein stability index follow.
metric_name: protein stability index

{"variant_descriptor": "E4F", "metric_name": "protein stability index", "measured_number": 3.94}
{"variant_descriptor": "P23F", "metric_name": "protein stability index", "measured_number": 3.98}
{"variant_descriptor": "G7M", "metric_name": "protein stability index", "measured_number": 4.03}

Numbers sourced from the supplement of paper PMC10567573.
